Reported MIC by item:
- Tested on: Staphylococcus aureus
- protocol_details: microbe, parasite or virus in culture
- condition_summary: ATCC 43300, 18 h, ASSAY_TEST Inhibition of Bacterial Growth, detection method Absorption (OD600), MEDIA CAMHB, plate type 384well, NBS, CORNING #3640
- Description: Antibacterial activity against Staphylococcus aureus MRSA ATCC 43300 (CO-ADD:GP_020); MIC in CAMBH media, using NBS plates, by OD(600)

Entry Cc1ccc2c(c1C)NC(=O)C21NN=C(c2ccccc2)S1 (stereo not drawn) ; MIC = > 10 µM

Entry "COc1ccc2nccc(NC(=O)C3CCN(CCc4ccc(Cl)cc4)CC3)c2n1" ; MIC = 1.25 µM

Entry Cc1nc(-c2ccccn2)nc(N2CCC(Cc3ccccc3)C2)c1Cl (stereo not drawn) ; MIC = > 10 µM

Entry "Cc1nc(-c2ccccn2)nc(N(C)CCc2ccccc2)c1Cl" ; MIC = > 10 µM

Entry "O=C(Nc1nnc(-c2ccc(Cl)s2)o1)c1ccc(Cl)s1" ; MIC = 10 µM

Entry "CCCCCCCCCCCCCCCCOP(=O)([O-])OCC[N+](C)(C)C" ; MIC = > 10 µM

----------
- System: Staphylococcus aureus
- protocol_details: microbe, parasite or virus in culture
- condition_summary: ATCC 43300, 18 h, ASSAY_TEST Inhibition of Bacterial Growth, detection method Absorption (OD600), MEDIA CAMHB, plate type 384well, NBS, CORNING #3640
Structures can show the parent of a compound that is named as a salt.
property_measured: MIC

Examples with answers:
- molecule: "C[C@H]1c2cccc(O)c2C(=O)C2=C(O)[C@]3(O)C(=O)C(C(N)=O)=C(O)[C@@H](N(C)C)[C@@H]3[C@@H](O)[C@@H]21 [DOXYCYCLINE HYDROCHLORIDE]"
  MIC: "0.156 µM"
- molecule: "O=C(Nc1ccc(C(F)(F)F)c(C(F)(F)F)c1)c1cc(Cl)ccc1O"
  MIC: "> 10 µM"
- molecule: "CO[C@H]1/C=C/O[C@@]2(C)Oc3c(C)c(O)c4c(O)c(/c(=C/NN5CCN(C)CC5)c(O)c4c3C2=O)=N\\C(=O)/C(C)=C\\C=C/[C@H](C)[C@H](O)[C@@H](C)[C@@H](O)[C@@H](C)[C@H](OC(C)=O)[C@@H]1C"
  MIC: "≤ 0.0781 µM"

Entry "CCN(CC)S(=O)(=O)c1ccc(C(=O)Nc2cc(C)nn2-c2nc(C)c(C)c(=O)[nH]2)cc1" ; MIC = > 10 µM

Entry "CN1CCN(CCCOc2ncc(Nc3ncc(-c4ccc(C(F)(F)F)c(F)c4)nc3C(N)=O)cn2)CC1" ; MIC = > 10 µM

----------
- System: Escherichia coli
- protocol_details: microbe, parasite or virus in culture
- condition_summary: ATCC 25922, 18 h, ASSAY_TEST Inhibition of Bacterial Growth, detection method Absorption (OD600), MEDIA CAMHB, plate type 384well, NBS, CORNING #3640
- Description: Antibacterial activity against Escherichia coli ATCC 25922 (CO-ADD:GN_001); MIC in CAMBH media using NBS plates, by OD(600)
Structures can show the parent of a compound that is named as a salt.
property_measured: MIC

Examples with answers:
- compound: "C[C@H]1c2cccc(O)c2C(=O)C2=C(O)[C@]3(O)C(=O)C(C(N)=O)=C(O)[C@@H](N(C)C)[C@@H]3[C@@H](O)[C@@H]21 [DOXYCYCLINE HYDROCHLORIDE]"
  value_measured: "1.25 µM"
- compound: "COc1cc(C2=NCCN2)cc2cc(-c3ccc(C4=NCCN4)cc3)oc12"
  value_measured: "> 10 µM"
- compound: "CO/N=C(\\C(=O)OC)c1ccccc1CO/N=C(\\C)c1cccc(C(F)(F)F)c1"
  value_measured: "> 10 µM"

Pending compound:
Entry "Cc1nn2c(=O)c3c([nH]c2c1-c1ccc(Cl)cc1)CCCC3" ; MIC = > 10 µM
